These data points were gathered from patent US20250034170A1.

# Assay target: GCase (Homo sapiens, UniProt P04062)
# Construct: endogenous in cells; host or cells: HeLa cells
# Sequence (P04062 40-536): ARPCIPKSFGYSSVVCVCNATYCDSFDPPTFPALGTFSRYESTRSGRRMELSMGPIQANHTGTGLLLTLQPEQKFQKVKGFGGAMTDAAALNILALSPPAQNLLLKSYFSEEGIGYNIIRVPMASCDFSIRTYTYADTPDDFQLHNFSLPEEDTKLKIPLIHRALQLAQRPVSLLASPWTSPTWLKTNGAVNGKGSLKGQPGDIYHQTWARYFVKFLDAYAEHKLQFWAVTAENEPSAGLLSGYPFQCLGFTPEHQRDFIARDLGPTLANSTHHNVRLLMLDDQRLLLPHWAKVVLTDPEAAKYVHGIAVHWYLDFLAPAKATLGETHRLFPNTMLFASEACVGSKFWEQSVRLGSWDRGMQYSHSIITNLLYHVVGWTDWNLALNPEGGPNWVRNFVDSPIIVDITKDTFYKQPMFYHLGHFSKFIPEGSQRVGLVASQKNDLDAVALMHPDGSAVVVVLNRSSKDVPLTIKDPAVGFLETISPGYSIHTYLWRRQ
# Test: activation of GCase in a live cell PFB assay in HELA cells
# Assay type: cell-based
# Settings: activation of GCase, EC50 ranges
Below, each of the molecules is paired with its reported EC50 value.

- Molecule: "COc1nc(N2CCC3(CN(c4ccnc(C(F)(F)F)c4)C3)C2)nc2c1cnn2CC(F)F"
  EC50: "10 to 50 µM"
- Molecule: "FC(F)c1nnc(-c2cncc(N3CCC4(CN(c5ccnc(C(F)(F)F)c5)C4)C3)n2)s1"
  EC50: "10 to 50 µM"
- Molecule: "O=C1N(c2ccc(C(F)(F)F)nc2)C(=O)C2(CCN(c3cnc4cnn(CC(F)F)c4n3)CC2)N1Cc1cncc(F)c1"
  EC50: "10 to 50 µM"
- Molecule: "COc1nn(CC(F)F)c2nc(N3CCC4(CC3)CC(=O)N(c3ccc(C(F)(F)F)nc3)C4)ncc12"
  EC50: "10 to 50 µM"
- Molecule: "COc1nn(CC(F)F)c2nc(N3CCC4(CN(c5ccnc(C(F)(F)F)c5)C4)C3)ncc12"
  EC50: "10 to 50 µM"
- Molecule: "FC(F)Cn1ncc2ncc(N3CC4(CCN(c5ccc(C(F)(F)F)nc5)CC4)C3)nc21"
  EC50: "< 10 µM"
- Molecule: "Cc1cc(C(F)(F)F)ncc1N1CCC2(CCN(c3cnc4cnn(CC(F)F)c4n3)CC2)C1"
  EC50: "< 10 µM"
- Molecule: "FC(F)Cn1ncc2ncc(N3CCC4(CN(c5ccc(C(F)(F)F)cn5)CCO4)C3)nc21 (centres unmarked)"
  EC50: "50 to 100 µM"
- Molecule: "Cc1cc(C(F)(F)F)nnc1N1CCC2(CCN(c3cnc4cnn(CC(F)F)c4n3)CC2)C1"
  EC50: "10 to 50 µM"
- Molecule: "CCC1N(c2ccc(C(F)(F)F)cn2)C(=O)CC12CCN(c1cnc3cnn(CC(F)F)c3n1)CC2 (centres unmarked)"
  EC50: "< 10 µM"
- Molecule: "CC(c1ccc(C(F)(F)F)cn1)N1CC2(CCN(c3cnc4cnn(CC(F)F)c4n3)CC2)CC1=O (centres unmarked)"
  EC50: "< 10 µM"
- Molecule: "FC(F)Cn1ncc2ncc(N3CCC4(CCN(c5ccc(C(F)(F)F)cn5)CC4)C3)nc21"
  EC50: "10 to 50 µM"
- Molecule: "FC(F)Cn1ncc2ncc(N3CCC4(CCC(Oc5cnccc5C(F)(F)F)C4)CC3)nc21 (centres unmarked)"
  EC50: "< 10 µM"
- Molecule: "Cc1cc(N2CC3(CCN(c4cnc5cnn(CC(F)F)c5n4)C3)C2)nc(C(F)F)n1"
  EC50: "< 10 µM"
- Molecule: "FC(F)Cn1ncc2ncc(N3CC4(CCCN(c5ccc(C(F)F)nc5)C4)C3)nc21"
  EC50: "> 100 µM"
- Molecule: "FC(F)(F)c1ccc(N2CCC3(CCN(c4cncc(-n5cncn5)n4)CC3)C2)cn1"
  EC50: "< 10 µM"
- Molecule: "FC(F)(F)c1ccc(N2CCC3(CCN(c4cncc(-n5cccn5)n4)CC3)C2)cn1"
  EC50: "< 10 µM"
- Molecule: "O=C1N(c2cc(C(F)(F)F)ccn2)CCC12CCN(c1cncc(-n3ccnc3)n1)CC2"
  EC50: "10 to 50 µM"
- Molecule: "CCn1c(N2CCC3(CCN(c4cc(C(F)(F)F)nc(C)n4)C3)CC2)nc2c(cnn2CC(F)F)c1=O"
  EC50: "< 10 µM"
- Molecule: "Cc1nc(C(F)(F)F)ncc1N1CC2(CCN(c3cnc4cnn([C@H]5CCOC5)c4n3)C2)C1"
  EC50: "50 to 100 µM"
- Molecule: "FC(F)Cn1ncc2cnc(N3CCC4(C3)CN(c3nnc(C(F)(F)F)s3)C4)nc21"
  EC50: "50 to 100 µM"
- Molecule: "CCc1nccn1-c1cncc(N2CCC3(CCN(c4ccc(C(F)(F)F)nc4)C3)CC2)n1"
  EC50: "< 10 µM"
- Molecule: "O=C1CC2(CCN(c3cnc4cnn(CC(F)F)c4n3)CC2)CN1Cc1ccc(C(F)(F)F)nc1"
  EC50: "< 10 µM"
- Molecule: "O=C1CC2(CCN(c3cnc4cnn(CC(F)F)c4n3)CC2)CN1Cc1ccnc(C(F)(F)F)c1"
  EC50: "< 10 µM"
- Molecule: "CCn1ncc2ncc(N3CCC4(CC3)CC(=O)N(c3ccc(C(F)(F)F)nc3)C4)nc21"
  EC50: "< 10 µM"
- Molecule: "FC(F)Cn1ncc2ncc(N3CCC4(CC3)CCN(c3ccncc3C(F)(F)F)C4)nc21"
  EC50: "< 10 µM"
- Molecule: "Cc1nn(CC(F)F)c2nc(N3CCC4(CC3)CCN(c3ccc(C(F)(F)F)nc3)C4=O)cnc12"
  EC50: "< 10 µM"
- Molecule: "O=C1CCC2(CN(c3cnc4cnn(CC(F)F)c4n3)C2)CN1c1cccc(C(F)(F)F)n1"
  EC50: "10 to 50 µM"
- Molecule: "O=C1N(c2ccc(C(F)(F)F)nc2)CC(c2ccccc2)C12CCN(c1cnc3cnn(CC(F)F)c3n1)CC2 (centres unmarked)"
  EC50: "< 10 µM"
- Molecule: "O=C1CC2(CN(c3cnc4cnn(C5COC5)c4n3)C2)CN1c1ccnc(C(F)(F)F)c1"
  EC50: "10 to 50 µM"
- Molecule: "CCC1N(c2ccc(C(F)(F)F)nc2)C(=O)CC12CCN(c1cnc3cnn(CC(F)F)c3n1)CC2 (centres unmarked)"
  EC50: "10 to 50 µM"
- Molecule: "O=C1N(Cc2ccc(C(F)(F)F)cn2)CCC12CCN(c1cnc3cnn(CC(F)F)c3n1)CC2"
  EC50: "10 to 50 µM"
